Origin of values: ChEMBL document CHEMBL1201862

# Test system: UACC-62
# EXPERIMENT: NCI tumour cell line growth inhibition, 48 h
The source made the active and inactive calls. Rule as the data show it: active = GI50 up to about 1.1 µM and inactive = higher.
Labels: active, inactive

1. O=C(c1ccc(Cl)c(Cl)c1)N(Cc1cccnc1)C(=S)N(Cc1cccnc1)C(=O)c1ccc(Cl)c(Cl)c1 ... inactive
2. CCCC(c1cc(C(C)(C)C)c(O)cc1C)c1cc(C(C)(C)C)c(O)cc1C ... inactive
3. CCOC(=O)C1(C(=O)OCC)CCC(C(OC)OC)C(CC(=O)OC)C1 (configuration not stated) ... inactive
4. NNC(=O)c1cc([N+](=O)[O-])ccc1NC(=O)C12CC3CC(CC(C3)C1)C2 ... inactive
5. N#CC1(C#N)C2(c3ccccc3)OC(c3ccccc3)(c3cc4ccccc4cc32)C1(C#N)C#N ... inactive
6. COc1ccc(-c2cc(=O)c3c(O)cc(C)cc3o2)cc1OC ... inactive
7. CCOC(=O)/C(O)=C1\C(=O)N(C)C(=O)C1c1cccc(OC)c1 (configuration not stated) ... inactive
8. O=C(OC1C=C=CS(=O)(=O)CC#C/C=C\1)c1cnc2ccccc2n1 (configuration not stated) ... inactive
9. O=C1C(Cl)=C(N2CCN(c3ccccn3)CC2)C(=O)c2ncccc21 ... inactive
10. CC(=NNC(=S)Nc1ccccc1)c1cccc(C(C)=NNC(=S)Nc2ccccc2)n1 ... inactive
11. O=C(/C=C/c1ccc[nH]1)c1ccccc1 ... inactive
12. NC(=O)N/C=C1\C(=O)Oc2ccccc2C1=O ... inactive
13. Cc1cn2c(C)csc2c1P(=O)(OC(C)C)OC(C)C ... inactive
14. Cc1c(OCc2cccc3ccccc23)ccc2c(=O)cc(SCCN3CCOCC3)oc12 ... inactive
15. CN(C)CCNc1nc(-c2ccc3ccccc3c2)nc2[nH]cnc12 ... inactive
16. O=S(=O)(Nc1nc2ccccc2nc1Nc1cccc2ccccc12)c1ccccc1 ... inactive
17. NC(Cc1ccccc1)P(=O)(O)O (configuration not stated) ... inactive
18. Nc1cccc2c1C(=O)c1cccc(N)c1C2=O ... inactive
19. CCC1C(C#N)=C(N)OC2=C1C(=O)CC(C)(C)C2 (configuration not stated) ... inactive
20. COc1cc(/C=C\c2ccc(Br)cc2)cc(OC)c1OC ... active
21. COc1cc(Cn2c(=S)ss/c2=N\C(=S)N(C)C)cc(OC)c1OC ... inactive
22. CC(C)C1N2CCCCC2[C@@H]2c3[nH]c4ccccc4c3CCN12 (some centres not stated) ... inactive

* * *

# Lookup of reported GI50 keyed by entry
# Test system: NCI-H522
# EXPERIMENT: NCI tumour cell line growth inhibition, 48 h
Active and inactive are the calls of the source. Cut-off read from the data, not from the text of the source: active = GI50 up to about 1.1 µM and inactive = higher.
MEASUREMENT NAME: GI50

1. Cc1cc(=O)oc2cc(OC(=O)N(CCCl)CCCl)ccc12 ... 79.1 µM (inactive)
2. COc1ccc(-c2cc(=O)c3c(O)cc(C)cc3o2)cc1OC ... > 100 µM (inactive)
3. O=C1CC(c2ccco2)C2(C(=O)NC(=O)NC2=O)C(c2ccco2)C1 (configuration not stated) ... > 75 µM (inactive)
4. CNCCCNC(=S)Cn1cc(C)c(=O)[nH]c1=O ... > 53.6 µM (inactive)
5. CCC12C=CCN3CC[C@]4(C(=C(C(=O)OC)[C@@H]1Nc1ccn(C5OC(COC(C)=O)C(OC(C)=O)C5OC(C)=O)c(=O)n1)Nc1ccccc14)C32 (some centres not stated) ... 3.84 µM (inactive)
6. CC(C)C(=O)NS(=O)(=O)c1ccccc1 ... > 100 µM (inactive)
7. [O-][S+](Nc1ccccc1)c1ccc(Cl)cc1 (configuration not stated) ... 73.3 µM (inactive)
8. CCC1C(C#N)=C(N)OC2=C1C(=O)CC(C)(C)C2 (configuration not stated) ... > 100 µM (inactive)
9. COc1ccc(C2SCC(=O)N2NC(=O)c2ccncc2)cc1F (configuration not stated) ... > 100 µM (inactive)
10. COC(O)C(=O)c1c2c(cc3c1CCC3)CCC2 (configuration not stated) ... > 100 µM (inactive)
11. O=c1c2cc(Br)ccc2n(C2OC(CO)C(O)C(O)C2O)c(=S)n1-c1ccccc1 (configuration not stated) ... > 100 µM (inactive)
12. Nc1nc(-c2cccs2)cs1 ... 34.9 µM (inactive)
13. O=c1oc2ccccc2cc1-c1cc2ccccn2c1 ... > 100 µM (inactive)
14. CCCCCCCCCCCC(=O)c1c(O)cccc1O ... 18.7 µM (inactive)
15. O=[N+]([O-])c1ccc2c(c1)C1=C(CO2)Cc2ccccc2O1 ... 22.4 µM (inactive)
16. O=S(=O)([C-]([I+]c1ccccc1)S(=O)(=O)C(F)(F)C(F)(F)C(F)(F)C(F)(F)F)C(F)(F)C(F)(F)C(F)(F)C(F)(F)F ... 2.49 µM (inactive)
17. COc1cc2c(cc1O)C(=O)O[C@@H]1CC=C3CCN(C)[C@H]3[C@H]21 ... > 25 µM (inactive)
18. C=CCNC(=O)N(CCCC(NC(C)=O)C(=O)NCc1ccccc1)Cc1ccccc1 (configuration not stated) ... > 100 µM (inactive)
19. N#CC(/C(=N/NC(=O)C(=O)NN)C(=O)NC12CC3CC(CC(C3)C1)C2)c1ccccc1 (configuration not stated) ... > 100 µM (inactive)
20. CC(O)C1(CNc2cc(Cl)nc(N)n2)CC(CCc2ccccc2)C1 (configuration not stated) ... 8.41 µM (inactive)
21. CCOC(=O)/C(=C\c1cccc(C)c1)C(C)=O ... 10 µM (inactive)
22. CC(=O)NC1C(Sc2ncn(C3OC(CO)C(O)C(O)C3NC(C)=O)n2)OC(CO)C(O)C1O (configuration not stated) ... > 100 µM (inactive)

* * *

# Tested on: SF-539
# EXPERIMENT: NCI tumour cell line growth inhibition, 48 h
Active and inactive are the calls of the source. No stated cut-off is given here; in the data, active = GI50 up to about 1.1 µM and inactive = higher.
Each record here notes measured GI50.
MEASUREMENT NAME: GI50

1) NCCO/C=C/C(N)C(=O)O (stereo not given) [AMINOETHOXYVINYLGLYCINE] ... > 100 µM (inactive)
2) CO[C@H](C(=O)O[C@H]1C(=O)N2CC[C@@H]3CCC[C@H]1C32C)c1ccccc1 (stereo not given in full) ... > 100 µM (inactive)
3) CCOC1c2nc3ccccc3nc2-c2ccccc2N1C(C)=O (stereo not given) ... > 100 µM (inactive)
4) CN(C(=O)C12C3(C(=O)O)C4C5(C(=O)O)C3C1(C(=O)O)C5C42C(=O)O)C(C)(C)C (stereo not given) ... > 100 µM (inactive)
5) COc1ccc(Nc2nc3cc(C(F)(F)F)ccc3n3cccc23)cc1OC ... 16.8 µM (inactive)
6) CCOC(=O)/C(O)=C1\C(=O)N(C)C(=O)C1c1cccc(OC)c1 (stereo not given) ... > 100 µM (inactive)
7) O=C(c1ccccc1)N1N=C(C(F)(F)F)CC1(O)C(F)(F)F (stereo not given) ... > 100 µM (inactive)
8) O=C(Nc1ccc(Cl)c(Cl)c1)C(=O)C(C1OC(=O)c2ccccc21)[N+](=O)[O-] (stereo not given) ... > 100 µM (inactive)
9) CCOP(=O)(OCC)C(Nc1cccc([N+](=O)[O-])c1)c1ccccc1 (stereo not given) ... > 100 µM (inactive)
10) CCn1sc2ccccc2c1=O ... 13.5 µM (inactive)

* * *

# Tested on: SK-MEL-28
# EXPERIMENT: NCI tumour cell line growth inhibition, 48 h
The source made the active and inactive calls. Rule as the data show it: active = GI50 up to about 1.1 µM and inactive = higher.
Measured GI50 of individual entries
MEASUREMENT NAME: GI50

1. Nc1nc(Cl)cc(NCC2(CO)CCC(O)C2)n1 (centres undefined) ... > 100 µM (inactive)
2. CCCCc1c(C(=O)OC(C)(C)C)cc(C#Cc2cc(C(=O)OC(C)(C)C)c(CCCC)c(C(=O)OC(C)(C)C)c2)cc1C(=O)OC(C)(C)C ... > 100 µM (inactive)
3. CCOC(=O)C(O)(NC(=O)Nc1ccc(F)cc1)C(F)(F)F (centres undefined) ... > 100 µM (inactive)
4. O=C(O)CCNC(=O)c1cc(N(CCBr)CCBr)c([N+](=O)[O-])cc1[N+](=O)[O-] ... > 100 µM (inactive)
5. O=C(O)C1=NN(c2ccc(S(=O)(=O)O)cc2)C2(C1)SCC(=O)N2c1nc2ccccc2s1 (centres undefined) ... > 100 µM (inactive)
6. N#Cc1c(=O)c2cc([N+](=O)[O-])ccc2n2c1[nH]c1ccccc12 ... 4.48 µM (inactive)
7. O=C(Oc1c(I)ccccc1=O)c1ccc([N+](=O)[O-])cc1 ... 8.09 µM (inactive)
8. COc1ccc(/C=c2\sc3nnc(CCC(=O)Nc4cccc(C(F)(F)F)c4)n3c2=O)cc1 ... > 74.3 µM (inactive)
9. O=S(=O)(Nc1nc2ccccc2nc1Nc1cccc2ccccc12)c1ccccc1 ... 25.9 µM (inactive)
